Tested on: NCI-H322M (Lung Adenocarcinoma);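 note: after 72 h of two-drug dosing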
measurement_notes: Bliss excess, mean over the matrix (fraction); higher = more synergy
measurement_name: Bliss excess

COc1nnc2ccc(N3CCC(c4ccc(OCCN5CCN(C)C(=O)[C@H]5C)cc4)CC3)nn12 [AZD5153] + Cn1cnc2c(F)c(Nc3ccc(Br)cc3Cl)c(C(=O)NOCCO)cc21 [Selumetinib] (first compound max 1 µM, 7x7, partner max 10 µM)	0.0052
CN(CCO)CC[C@H](CSc1ccccc1)Nc1ccc(S(=O)(=O)NC(=O)c2ccc(N3CCC([C@@H](O)c4ccccc4-c4ccc(Cl)cc4)CC3)cc2)cc1S(=O)(=O)C(F)(F)F [AZD4320] + C=CCn1c(=O)c2cnc(Nc3ccc(N4CCN(C)CC4)cc3)nc2n1-c1cccc(C(C)(C)O)n1 [AZD1775] (first compound max 1 µM, partner max 1 µM)	-0.0521
Cn1cnc2c(F)c(Nc3ccc(Br)cc3Cl)c(C(=O)NOCCO)cc21 [Selumetinib] + CCN(CCO)CCCOc1ccc2c(Nc3cc(CC(=O)Nc4cccc(F)c4)[nH]n3)ncnc2c1 [AZD2811] (first compound max 10 µM, 7x7, partner max 1 µM)	-0.0069
